// reported AC50 for each item listed
system.under.test: 5-hydroxytryptamine receptor 2B (Homo sapiens); also: assay procedure not described here
Sequence (P41595 whole entry): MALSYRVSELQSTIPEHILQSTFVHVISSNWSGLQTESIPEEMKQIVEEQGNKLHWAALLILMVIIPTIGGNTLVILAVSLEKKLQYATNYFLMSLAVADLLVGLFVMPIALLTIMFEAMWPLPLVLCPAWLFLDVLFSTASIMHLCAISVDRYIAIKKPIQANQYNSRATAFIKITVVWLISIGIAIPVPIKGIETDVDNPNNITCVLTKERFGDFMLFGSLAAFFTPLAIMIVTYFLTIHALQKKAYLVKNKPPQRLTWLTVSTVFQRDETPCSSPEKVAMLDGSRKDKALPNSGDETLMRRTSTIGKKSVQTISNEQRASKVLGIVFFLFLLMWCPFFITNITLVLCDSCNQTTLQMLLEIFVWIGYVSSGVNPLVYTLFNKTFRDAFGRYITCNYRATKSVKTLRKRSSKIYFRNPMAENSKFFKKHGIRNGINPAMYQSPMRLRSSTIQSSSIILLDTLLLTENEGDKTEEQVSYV
Format: functional, cell-based
measured.endpoint: AC50

[[record]]
compound = "CN1CC[C@]23CCCC[C@H]2[C@H]1Cc1ccc(O)cc13"
result = "> 10 µM"

[[record]]
compound = "CC(C)(C(=O)c1cccnc1)c1cccnc1"
result = "> 10 µM"

[[record]]
compound = "CC(C)NCC1CCc2cc(CO)c([N+](=O)[O-])cc2N1 (stereo not drawn)"
result = "26 µM"

[[record]]
compound = "C[C@H]1C[C@@H]2[C@H]([C@@H](O)C[C@@]3(C)[C@H]2CC[C@]3(O)C(=O)COC(=O)CCC(=O)O)[C@@]2(C)C=CC(=O)C=C12 [METHYLPREDNISOLONE HEMISUCCINATE]"
result = "> 30 µM"

[[record]]
compound = "CN1C(=O)COc2c(C(=O)NC3CN4CCC3CC4)cc(Cl)cc21 (stereo not drawn)"
result = "> 30 µM"

[[record]]
compound = "CC(=O)N[C@H]1[C@H]([C@H](O)[C@H](O)CO)OC(C(=O)O)=C[C@@H]1N=C(N)N"
result = "> 30 µM"

[[record]]
compound = "C1=Cc2cccc(OCC3CNCCO3)c2C1 (stereo not drawn)"
result = "5.3 µM"

[[record]]
compound = "CC(=O)NS(=O)(=O)c1ccc(N)cc1 [SULFACETAMIDE]"
result = "> 10 µM"

